Experiment: splicing luciferase reporter signal modulators, primary screen, spliceosome inhibition project, cell-based, HEK293, splice +/- reporter (AID 1101);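 also: HEK293 cells carrying a splicing-competent luciferase reporter gene; test concentration not given here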
Conditions: luminescence, 24 h, higher = more signal, called active from +8 up or from −8 down
measured metric: z-score
# respond with the number and nothing more

Request: Which z-score value belongs to C[C@@H](OCc1ccccc1)C1NC(=O)[C@@]23C(=O)N[C@@H](Cc4ccccc4)C2[C@H](C)[C@@]2(C)O[C@H]2C3/C=C/C/C=C\CNC(=O)CNC1=O (some centres not stated) ?
Result: 0.848

Request: Now the compound COC(=O)C1(Cc2ccccc2)C=C2C(=C(C(C)C)C(=O)C2C)CN1 (configuration not stated)
Result: 1.62

Request: Now the compound `COC(=O)[C@@]1(Cc2ccccc2)[C@H]2c3cc(C(=O)N4CCCC4)[nH]c3C[C@H]2CN1C(=O)c1ccccc1`
Result: -0.0516

Request: Now the compound `Cc1ccc(S[C@]2(C(=O)NCc3ccccc3)CC(=O)N(C(C)C)[C@@H]2c2ccc(CO)cc2I)cc1`
Result: 0.0407

Request: Now the compound CN1C(=O)C2C=CC(C(O)C3CCCCC3)N(N3CCCCC3)C2C1=O (configuration not stated)
Result: 1.77

Request: Now the compound `COc1ccc([Si](C)(C)[C@H]2[C@H](CCn3cc([C@H](O)c4ccccc4)nn3)O[C@@]3(C(=O)N(Cc4cccc(N5C(=O)c6cccc7cccc5c67)c4)c4ccccc43)[C@@H]2C)cc1`
Result: -0.762

Request: Now the compound `CO[C@H]1O[C@H](CO)[C@@H](OC(=O)Nc2ccccc2-c2ccccc2)[C@H](OC(=O)Nc2ccc3c(c2)OCO3)[C@@H]1OC(=O)Nc1ccc2c(c1)OCO2`
Result: -1.14

====

Assay: fission yeast growth modulation, primary screen, strain 972, OD600, 24 h, no modulator (AID 1090);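 also: basal condition with compound alone and no growth modifier present; test concentration not given here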
Conditions: S. pombe 972 growth, higher = more signal, called active from +8 up or from −8 down
Activity calls are given as the source filed them.
For each entry below, report its z-score value.

Request: Which z-score value belongs to `[N-]=[N+]=NCc1ccccc1C[C@@]1(C(=O)NCCN2CCOCC2)N=C(c2ccc(OCCCO)cc2)O[C@@H]1c1ccccc1N=[N+]=[N-]` ?
Result: -0.269 (inactive)

Request: Now the compound `COCCOC(=O)N1C(=O)[C@@]2(c3cc(C#CC4(O)CCCCCC4)ccc31)[C@H](c1ccccc1OCCO)N1[C@H](c3ccccc3)[C@H](c3ccccc3)OC(=O)[C@H]1[C@@H]2C(N)=O`
Result: 0.699 (inactive)

Request: Now the compound COc1ccc(C(O)C2C=CC3C(=O)N(C)C(=O)C3N2N2CCCCC2)cc1 (stereo not drawn)
Result: -0.275 (inactive)

====

For each entry below, report its z-score value.
Test: E. coli acrAB mutant growth effects, primary screen, E. coli filamentation inducers, strain DRC39, OD650, 48 h (AID 1179);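 also: screen aims at cell division blockers that make cells filament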
Conditions: E. coli DRC39 delta-acrAB growth, higher = more signal, called active from +8 up or from −8 down
# respond with the number and nothing more

Request: Which z-score value belongs to `O=C(CS)NCCCCCCNC(=O)[C@H]1C[C@H]2C(=O)N[C@@H](Cc3ccccc3)C(=O)N2[C@H]1c1cccc(OCCO)c1` ?
Result: 0.57

Request: Now the molecule `Cc1ccc(F)cc1S(=O)(=O)N[C@@H]1CCN(Cc2ccc(Oc3ccccc3)cc2)C1`
Result: -4.66

Request: Now the molecule `C=C[C@@H](COC(C)=O)NS(=O)(=O)c1ccc(Br)cc1`
Result: 0.0818

Request: Now the molecule `CC(=O)N1Cc2ccccc2C[C@]2(N=C(c3ccc(OCCCO)cc3)O[C@@H]2c2ccccc2)C1=O`
Result: 1

Request: Now the molecule CCCCN1CC=CC23O[C@@H]4C=CCOC(=O)[C@@H]4[C@H]2C(=O)N(C(C)CO)[C@@H]3C1=O (stereo not given in full)
Result: -0.478

Request: Now the molecule `CC(C)CNC(=O)[C@@H]1c2ccccc2C(=O)N(Cc2cc(F)cc(C(F)(F)F)c2)[C@H]1c1ccc(CO)cc1`
Result: 1.42

Request: Now the molecule `C=CCOC(=O)[C@H]1[C@@H]2C(=O)O[C@@H](c3ccccc3)[C@@H](c3ccccc3)N2[C@@H](c2ccc(OCCOC(=O)[C@H]3C[C@H]4C(=O)N[C@@H](Cc5ccccc5)C(=O)N4[C@H]3c3ccc(O)cc3)cc2)[C@]12C(=O)Nc1ccc(I)cc12`
Result: -0.293

Request: Now the molecule `NC(=O)NCC#Cc1ccc2c(c1)[C@]1(C(=O)N2)[C@H](c2ccc(O)cc2)N2[C@H](c3ccccc3)[C@H](c3ccccc3)OC(=O)[C@H]2[C@@H]1C(=O)Nc1nc2ccccc2s1`
Result: 1.19

Request: Now the molecule CC=CC(O)C1C=CC2C(=O)N(c3ccccc3)C(=O)C2N1Nc1ccc([N+](=O)[O-])cc1 (stereo not given)
Result: -0.279

Request: Now the molecule COc1ccc(NN2C(C(O)c3ccco3)C=CC3C(=O)N(C4CCCCC4)C(=O)C32)cc1 (stereo not given)
Result: -0.109

Request: Now the molecule `[N-]=[N+]=Nc1ccccc1C[C@@]1(C(=O)O)N=C(c2ccc(OCCCO)cc2)O[C@@H]1c1ccccc1`
Result: -0.523

Request: Now the molecule `COC(=O)Cn1c(C(=O)N2CCCC2)cc2c1C[C@H]1CN(C(=O)c3ccccc3)[C@@](Cc3ccc(F)cc3)(C(=O)OC)[C@@H]21`
Result: -0.181

Request: Now the molecule `CCOC(=O)C1=CC[C@@H](c2ccccc2)N(S(=O)(=O)c2ccc(C)cc2)C1`
Result: -0.869

Request: Now the molecule `CC(C)N1C(=O)[C@@]2(c3ccc([N+](=O)[O-])cc3)CC(=O)N(C3CCCCC3)[C@@H]2c2ccc(CO)cc21`
Result: -0.303

Request: Now the molecule CC(C)C(O)C1C=CC2C(=O)N(C)C(=O)C2N1Nc1ccccc1 (stereo not given)
Result: -0.434

====

For each entry below, report its z-score value.
Test: S. cerevisiae growth modulation with rapamycin, primary screen, strain BY4716, OD600, 96 h (AID 1091); also: test concentration not given here
Conditions: higher = more signal, called active from +8 up or from −8 down
# respond with the number and nothing more

Request: Which z-score value belongs to CC=CC(O)C1C=CC2C(=O)N(c3ccccc3)C(=O)C2N1Nc1ccc([N+](=O)[O-])cc1 (stereo unspecified) ?
Result: 1.44

Request: Now the molecule `COc1ccc([Si](C)(C)[C@H]2[C@H](CCn3cc(CCO)nn3)O[C@@]3(C(=O)N(Cc4ccc(N5C(=O)c6cccc7cccc5c67)cc4)c4ccccc43)[C@@H]2C)cc1`
Result: 6.07

Request: Now the molecule `COCCCNC(=O)[C@]1(Cc2ccccc2N=[N+]=[N-])N=C(c2ccc(OCCCO)cc2)O[C@@H]1c1ccccc1N=[N+]=[N-]`
Result: 1.75

Request: Now the molecule `CCCCC(=C=CC[C@@H](O)c1ccc(OCCO)cc1)C[C@@H](O)COCc1ccccc1`
Result: -1.07

Request: Now the molecule `COc1ccccc1CN1C(=O)c2ccccc2[C@](Cc2ccccc2I)(C(=O)NC(C)C)[C@@H]1c1ccc(CO)cc1`
Result: 0.152

Request: Now the molecule `COC(=O)Cn1c(C(=O)N2CCCC2)cc2c1C[C@H]1CN(C(=O)c3ccccc3)[C@@](Cc3ccc(F)cc3)(C(=O)OC)[C@@H]21`
Result: -1.24

Request: Now the molecule CC(CO)N1C(=O)[C@@H]2C3C(=O)OCCC/C=C\[C@H]3OC23C=CCN(Cn2nnc4ccccc42)C(=O)[C@@H]13 (stereo partly specified)
Result: -0.637

Request: Now the molecule `CC(C)C(=C=CC[C@H](O)c1ccc(OCCO)cc1)C[C@H](O)c1cc(Cl)cc(Cl)c1O`
Result: -0.558

Request: Now the molecule `COCC(=C=CC[C@H](O)c1cccc(OCCO)c1)C[C@H](O)c1ccccn1`
Result: 0.371

Request: Now the molecule `CN(C)CCCNC(=O)[C@@]1(C)c2ccccc2C(=O)N(Cc2cc(C(F)(F)F)cc(C(F)(F)F)c2)[C@H]1c1ccc(CO)cc1`
Result: -0.945

Request: Now the molecule O=C1NC(=O)C2C1C=CC(C(O)c1c(F)cccc1Cl)N2Nc1ccccn1 (stereo unspecified)
Result: 0.0515

Request: Now the molecule `CON(C)C(=O)C=C1C[C@@H](c2cccc(Cl)c2)O[C@@H](c2cccc(Cl)c2)O1`
Result: 6.28

Request: Now the molecule `COC(=O)c1c(CC[C@@H](CO)NC(=O)N[C@H](Cn2cc(-c3ccccc3C)nn2)C(C)C)oc(C(C)=O)c1C(=O)OC`
Result: 0.467

Request: Now the molecule `C=C(CCCC)C(=O)CC[C@@H](OC(=O)c1cccnc1)c1ccccc1OCCO`
Result: -0.24

Request: Now the molecule `O=C1NCC(=O)N2[C@@H]1C[C@@H](C(=O)O)[C@H]2c1ccc(O)cc1`
Result: 0.318

Request: Now the molecule `COCCOC(=O)N1C(=O)[C@@]2(c3cc(C#CCNC(N)=O)ccc31)[C@H](C(=O)N1CCCCCCC1)[C@H]1C(=O)O[C@H](c3ccccc3)[C@H](c3ccccc3)N1[C@@H]2c1ccc(O)cc1`
Result: 0.903

Request: Now the molecule `NCCCCCCNC(=O)[C@H]1C[C@H]2C(=O)N[C@@H](Cc3ccccc3)C(=O)N2[C@H]1c1ccc(O)cc1`
Result: -1.24

Request: Now the molecule `Cc1ccc(S[C@]2(C(=O)NCC(F)(F)F)CC(=O)N(Cc3ccccc3)[C@@H]2c2ccc(CO)cc2)cc1`
Result: -0.711

Request: Now the molecule `COC(=O)C(CC#Cc1ccc2c(c1)[C@]1(C(=O)N2)[C@H](C(=O)O)[C@H]2C(=O)O[C@H](c3ccccc3)[C@H](c3ccccc3)N2[C@@H]1c1ccccc1OCCO)C(=O)OC`
Result: -1.17

Request: Now the molecule `NC(N)=NCc1cn(CCc2c[nH]c3ccccc23)nn1`
Result: -1.38

Request: Now the molecule `O=C(NC1CC1)[C@@H]1c2ccccc2C(=O)N(Cc2ccccc2)[C@H]1c1ccc(CO)cc1`
Result: 0.0225

Request: Now the molecule O=C1OC[C@@H](c2ccccc2)N2CC(/C=C/c3ccccc3)=CC12 (stereo partly specified)
Result: 0.321

Request: Now the molecule `COc1c(C)cc(-c2cc3c(c(-c4ccccc4)n2)[Si](C(C)C)(C(C)C)OC3)cc1C`
Result: -0.275

Request: Now the molecule CC(C)CCC[C@@H](C)[C@H]1CC[C@@]2(C)C3=C(CC[C@]12C)[C@@]1(C)CC[C@H](OC(=O)c2ccc(Br)cc2)C(C)(C)C1CC3 (stereo partly specified)
Result: -0.346

Request: Now the molecule CC=CC(O)C1C=CC2C(=O)N(C)C(=O)C2N1N1CCCCC1 (stereo unspecified)
Result: -0.207

Request: Now the molecule `CC(C)(C)OC(=O)CC[C@]1(C(=O)NCCN2CCOCC2)N=C(c2ccc(OCCCO)cc2)O[C@H]1c1ccccc1`
Result: -0.23

Request: Now the molecule COc1ccc(C(O)C2C=CC3C(=O)N(c4ccccc4)C(=O)C3N2Nc2ccccc2)cc1OCc1ccccc1 (stereo unspecified)
Result: 0.25

Request: Now the molecule `C=CCOC(=O)[C@@H]1[C@H]2C(=O)O[C@H](c3ccccc3)[C@H](c3ccccc3)N2[C@H](c2ccc(OCCOC(=O)[C@H]3C[C@H]4C(=O)N[C@@H](CC(C)C)C(=O)N4[C@H]3c3ccc(O)cc3)cc2)[C@@]12C(=O)Nc1ccc(I)cc12`
Result: 2.65

Request: Now the molecule CCCCN1CC=CC23O[C@@H]4/C=C\CCC(C)OC(=O)C4[C@H]2C(=O)N(CCCCCCO)[C@@H]3C1=O (stereo partly specified)
Result: 0.045

Request: Now the molecule `Cc1ccc(S[C@]2(C(=O)NCc3ccccc3)CC(=O)N(C(C)C)[C@@H]2c2ccc(CO)cc2I)cc1`
Result: 0.317

Request: Now the molecule [N-]=[N+]=NCc1ccccc1C[C@]1(C(=O)NCC(O)CO)N=C(c2ccc(OCCCO)cc2)O[C@H]1c1ccccc1CN=[N+]=[N-] (stereo partly specified)
Result: 1.48
